Source listed as PubChem BioAssay (NCI).

Test system: OVCAR-3 ovarian
Protocol Notes: NCI-60 one-dose screen, 48 h (100 = growth as untreated, 0 = no growth, -100 = all killed)
Condition: 10 µM unless noted
About 83,000 compounds went through this panel and 20% of them were active in at least one assay; those are over-represented in the sample as a whole. The source made the active and inactive calls. The calls were made as follows: active = growth percent below 10; inactive = the rest.
Readout Name: growth

Please review the following examples before continuing.
CC1[C@H]2[C@H](C[C@H]3[C@@H]4CC=C5c6sc(Nc7ccccc7F)nc6CC[C@]5(C)[C@H]4CC[C@@]32C)O[C@]12CC[C@@H](C)CO2 (some centres undefined) | -74.3% (active)
COCOc1cc2oc(C(=O)N[C@@H](Cc3ccccc3)C(O)C(=O)NCc3ccccc3)c(C)c(=O)c2cc1OCOC (some centres undefined) | 99% (inactive)
O=C(COc1ccc(NC(=O)Nc2ccc(Cl)c(Cl)c2)cc1)N=Nc1c(O)[nH]c2ccc(Br)cc12 | -76.4% (active)

# next molecule below
Lookup: Recorded growth of `O=C(O)c1ccc(-c2ccc(/C=N/NC(=O)c3[nH]c4ccc(Br)cc4c3-c3ccccc3)o2)cc1` , please.
Found: 1.4% (active)
